- target or test system: human glucagon receptor (human) (UniProt P47871)
- Sequence (P47871 26-477): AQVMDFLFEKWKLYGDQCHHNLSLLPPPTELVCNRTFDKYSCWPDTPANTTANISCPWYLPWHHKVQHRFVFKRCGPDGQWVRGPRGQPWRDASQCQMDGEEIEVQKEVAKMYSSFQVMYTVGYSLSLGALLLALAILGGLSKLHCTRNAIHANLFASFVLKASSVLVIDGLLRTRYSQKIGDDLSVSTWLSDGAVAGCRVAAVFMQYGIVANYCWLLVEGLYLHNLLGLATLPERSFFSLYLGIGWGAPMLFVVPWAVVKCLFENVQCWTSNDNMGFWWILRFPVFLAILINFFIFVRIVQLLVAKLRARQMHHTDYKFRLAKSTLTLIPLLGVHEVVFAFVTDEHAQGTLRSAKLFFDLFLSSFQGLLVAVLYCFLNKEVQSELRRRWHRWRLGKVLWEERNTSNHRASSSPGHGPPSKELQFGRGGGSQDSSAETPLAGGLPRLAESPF
- experiment: cell-based or functional assay
parameter: log10 cAMP Rel EC50 (in the presence of 1% HSA) (log10 of the value in µM)
Use the decimal logarithm of cAMP Rel EC50 (in the presence of 1% HSA) (µM).

Field: example entries. Status: answers known.
{"binder": "YXQGTXTSDXXIXLDXKAQXEFIEXLIEGGPSSGAPPPSGGGE (non-natural residues; lipidated Lys (γGlu)2-C18 diacid; C-term amide; synthetic construct; SITE 2: note = 2-Aminoisobutyric Acid; SITE 6: note = alpha-methyl-L-phenylalanine; SITE 10: note = 3-(4-Pyridyl)-L-alanine; SITE 11: note = alpha-methyl-L-serine; SITE 13: note = alpha-methyl-leucine; SITE 16: note = L-ornithine; SITE 17: note = Lysine is chemically modified th) [Example 1174]", "test result": -0.46}
{"binder": "YXQGTFTSDFSXXLDKKAQXAFIEYLLEAGPSSGHPPPSGS (non-natural residues (Aib, Orn, αMeL); lipidated Lys; C-terminal amide; synthetic construct; SITE 2: note = 2-Aminoisobutyric Acid; SITE 12: note = L-ornithine; SITE 13: note = alpha-methyl-leucine; SITE 17: note = Lysine is chemically modified through conjugation of the epsilon-amino group of the Lysine side chain with (2-[2-(2-Amino-ethoxy)-ethoxy]-acetyl)2-(gamma-Glu)) [Example 253]", "test result": -0.02}

# return recorded log10 cAMP Rel EC50 (in the presence of 1% HSA) for entry YXQGTFTSDFSXXLDKKAQXAFIEYLLEXGHSSGAPPPSGE (non-natural residues; lipidated Lys AEEA-γGlu-C18 diacid; C-term amide; synthetic construct; SITE 2: note = 2-Aminoisobutyric Acid; SITE 12: note = L-ornithine; SITE 13: note = alpha-methyl-leucine; SITE 17: note = Lysine is chemically modified through conjugation of the epsilon-amino group of the Lysine side chain with (2-[2-(2-Amino-ethoxy)-ethoxy]-acetyl)-(gamma-Glu)) [Example 247] -0.35

Answer with the recorded log10 cAMP Rel EC50 (in the presence of 1% HSA) for the binder listed here: YXQGTFTSDFSRXLDKKAQXAFIEYLLEGGPSSGAPPPGGS (synthetic construct; SITE 2: note = 2-Aminoisobutyric Acid; SITE 13: note = alpha-methyl-leucine; SITE 17: note = Lysine is chemically modified through conjugation of the epsilon-amino group of the Lysine side chain with (2-[2-(2-Amino-ethoxy)-ethoxy]-acetyl)-(gamma-Glu)-CO-(CH2) 18-CO2H; SITE 20: n) [Example 41] 0.36

Look up log10 cAMP Rel EC50 (in the presence of 1% HSA) of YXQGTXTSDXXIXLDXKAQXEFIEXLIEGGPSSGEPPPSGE (non-natural residues, lysine acylation, C-terminal amide; synthetic construct; SITE 2: note = 2-Aminoisobutyric Acid; SITE 6: note = alpha-methyl-L-phenylalanine; SITE 10: note = 3-(4-Pyridyl)-L-alanine; SITE 11: note = alpha-methyl-L-serine; SITE 13: note = alpha-methyl-leucine; SITE 16: note = L-ornithine; SITE 17: note = Lysine is chemically modified th) [Example 1171] and report it. -0.63

Let me know recorded log10 cAMP Rel EC50 (in the presence of 1% HSA) for YXQGTFTSDFSKXLDKKAQXAFIQYLLAGGPSSGEPPPSEG (synthetic construct; SITE 2: note = 2-Aminoisobutyric Acid; SITE 13: note = alpha-methyl-leucine; SITE 17: note = Lysine is chemically modified through conjugation of the epsilon-amino group of the Lysine side chain with (2-[2-(2-Amino-ethoxy)-ethoxy]-acetyl)-(gamma-Glu)-CO-(CH2) 18-CO2H; SITE 20: n) [Example 27] , thanks. 0.07

Name the recorded log10 cAMP Rel EC50 (in the presence of 1% HSA) of the item YXQGTXTSDXSIXLDKKAQXXFIEYLTEGGPSSGEPPPSGSEE (non-natural residues; Lys acylated C18 diacid; C-terminal amide; synthetic construct; SITE 2: note = 2-Aminoisobutyric Acid; SITE 6: note = alpha-methyl-2-fluoro-L-phenylalanine; SITE 10: note = 3-(4-Pyridyl)-L-alanine; SITE 13: note = alpha-methyl-leucine; SITE 17: note = Lysine is chemically modified through conjugation of the epsilon-amino group of the Lysine) [Example 638] in your answer. 0.04

Please indicate log10 cAMP Rel EC50 (in the presence of 1% HSA) recorded for YXQGTXTSDXSIXLDKKAQXAFIEYLTEGGPSSGEPPPSGSEE (non-natural residues; acylated Lys; C-terminal amide; synthetic construct; SITE 2: note = 2-Aminoisobutyric Acid; SITE 6: note = alpha-methyl-2-fluoro-L-phenylalanine; SITE 10: note = 3-(4-Pyridyl)-L-alanine; SITE 13: note = alpha-methyl-leucine; SITE 17: note = Lysine is chemically modified through conjugation of the epsilon-amino group of the Lysine) [Example 633] 0.18

Check the records and state log10 cAMP Rel EC50 (in the presence of 1% HSA) for YXQGTFTSDFSKXLDKKAQXAFIEWLLEGGPSSGAPPPSEG (synthetic construct; SITE 2: note = 2-Aminoisobutyric Acid; SITE 13: note = alpha-methyl-leucine; SITE 17: note = Lysine is chemically modified through conjugation of the epsilon-amino group of the Lysine side chain with (2-[2-(2-Amino-ethoxy)-ethoxy]-acetyl)-(gamma-Glu)-CO-(CH2) 18-CO2H; SITE 20: n) [Example 37] 0.27

Answer with the recorded log10 cAMP Rel EC50 (in the presence of 1% HSA) for the binder listed here: YXQGTFTSDFSKXLDKKAQXAFIEYLLAGGPSSGEPPPSGG (synthetic construct; SITE 2: note = 2-Aminoisobutyric Acid; SITE 13: note = alpha-methyl-leucine; SITE 17: note = Lysine is chemically modified through conjugation of the epsilon-amino group of the Lysine side chain with (2-[2-(2-Amino-ethoxy)-ethoxy]-acetyl)-(gamma-Glu)-CO-(CH2) 18-CO2H; SITE 20: n) [Example 6] 0.14

Name the recorded log10 cAMP Rel EC50 (in the presence of 1% HSA) of the binder listed here: YXQGTFTSDFSXXLDKKAQXAFIEYLLEXGPSSGAPPPSGX (acylated Lys γGlu-AEEA-γGlu-C18 diacid; non-natural residues; amide; synthetic construct; SITE 2: note = 2-Aminoisobutyric Acid; SITE 12: note = L-ornithine; SITE 13: note = alpha-methyl-leucine; SITE 17: note = Lysine is chemically modified through conjugation of the epsilon-amino group of the Lysine side chain with (gamma-Glu)-(2-[2-(2-Amino-ethoxy)-ethoxy]-acetyl)) [Example 277] 0.23

Return the recorded log10 cAMP Rel EC50 (in the presence of 1% HSA) value; entry: YXQGTFTSDXXQXLDXKAQXQFIQXLIEXGPSSGAPPPSGGGE (not fully specified; non-natural residues; Lys acylated γGlu-C18 diacid; C-terminal amide; synthetic construct; SITE 2: note = 2-Aminoisobutyric Acid; SITE 10: note = 3-(4-Pyridyl)-L-alanine; SITE 11: note = alpha-methyl-L-serine; SITE 13: note = alpha-methyl-leucine; SITE 16: note = L-ornithine; SITE 17: note = Lysine is chemically modified through conjugation of the epsilon-amino group) [Example 1186] -0.79
